Value source: ChEMBL document CHEMBL4808216

Test: Tmax in C57BL/6J mouse at 10 mg/kg, po administered as cassette dose measured at 4 hrs by liquid chromatographic triple-quadrupole mass spectrometric method
Type: ADME, organism-based
Conditions: in vivo
Measurement name: Tmax (min)
Express your answer in min, writing the number without its unit.

Here are 2 molecules together with their reported answers.
CC(C)(O)COc1ncc(C(F)(F)F)cc1-c1ccc(S(C)(=O)=O)cc1 ... 180
CCCCOc1nc(OCC(C)(C)O)c(-c2ccc(S(C)(=O)=O)cc2)cc1CO ... 15

// query What Tmax value was documented for this molecule, "Cc1ccc(-c2cc(C(F)(F)F)nn2-c2ccc(S(N)(=O)=O)cc2)cc1" ?
// result 15

// query Try "Cc1ccc(-c2ncc(Cl)cc2-c2ccc(S(C)(=O)=O)cc2)cn1" next.
// result 15

// query Request: "CCc1cnc(OCC(C)(C)O)c(-c2ccc(S(C)(=O)=O)cc2)c1"
// result 15

// query Now this one: "CCCOc1nc(OCC(C)(C)O)c(-c2ccc(S(C)(=O)=O)cc2)cc1CO"
// result 15

###

Assay: Drug concentration in C57BL/6J mouse plasma at 10 mg/kg, po administered as cassette dose measured at 4 hrs by LC/MS/MS analysis
Format: ADME, organism-based
Measurement name: log10(concentration at 4 h) (log10 of the value in ng/mL)
Note the log scale: values are log10 of concentration at 4 h expressed in ng/mL.

Some solved cases for reference:
CC(C)(O)COc1ncc(C(F)(F)F)cc1-c1ccc(S(C)(=O)=O)cc1 ... 3.99
Cc1ccc(-c2cc(C(F)(F)F)nn2-c2ccc(S(N)(=O)=O)cc2)cc1 ... 3.41
CCCCOc1nc(OCC2(O)COC2)c(-c2ccc(S(C)(=O)=O)cc2)cc1CO ... 0.89
CC(C)(O)COc1nc(OCCC(F)(F)F)c(CO)cc1-c1ccc(S(C)(=O)=O)cc1 ... 0.53
CC(C)(O)COc1nc(OCCCC(F)(F)F)c(CO)cc1-c1ccc(S(C)(=O)=O)cc1 ... 0.58

// query Given the compound "CCCCOc1nc(OCC(C)(C)O)c(-c2ccc(S(N)(=O)=O)cn2)cc1CO" , what is its reported log10(concentration at 4 h)?
// result 0.74

// query Entry "CCCCOc1nc(OCC2(O)CCC2)c(-c2ccc(S(C)(=O)=O)cc2)cc1CO" please
// result 1.00

// query Also "CCCCOc1nc(OCC(C)(C)O)c(-c2ccc(S(C)(=O)=O)cc2)cc1CO" ?
// result 0.48

// query And what about the compound "Cc1ccc(-c2ncc(Cl)cc2-c2ccc(S(C)(=O)=O)cc2)cn1" ?
// result 1.56

// query Also need "CCCCOc1nc(OCC(C)(C)O)c(-c2ccc(S(C)(=O)=O)cc2)cc1COCCO" , thanks.
// result 1.46

// query Can you check "CCCCOc1nc(-c2ccc(F)cc2)c(-c2ccc(S(C)(=O)=O)cc2)cc1CO" next?
// result 1.88

// query Also "CCCCOc1nc(OCC2(C)COC2)c(-c2ccc(S(C)(=O)=O)cc2)cc1CO" , if possible.
// result 0.30

###

Assay: Oral bioavailability in C57BL/6J mouse at 10 mg/kg measured up to 24 hrs by LC-MS analysis
Type: ADME, organism-based
Conditions: in vivo
Measurement name: bioavailability (%)
Please reply with the bare figure in % and do not write the unit itself.

CCCCOc1nc(OCC(C)(C)O)c(-c2ccc(S(C)(=O)=O)cc2)cc1CO ... 4.25

We next turn to a different compound, shown below.
// query Would you kindly share the measured bioavailability for "CCCOc1nc(OCC(C)(C)O)c(-c2ccc(S(C)(=O)=O)cc2)cc1CO" ?
// result 4.25

###

Species on record: Homo sapiens
Assay: Selectivity ratio of IC50 for COX1 in human whole blood assessed as reduction in calcium ionophore-stimulated TXB2 production to IC50 for COX2 in human whole blood assessed as reduction in LPS stimulated PGE2 production
Format: tissue-based
# Ratio IC50 per record follows

Some compounds with recorded Ratio IC50:
CCCCOc1nc(OCC(C)(C)O)c(-c2ccc(S(C)(=O)=O)cc2)cc1CO ... > 200
CCCCOc1nc(OCC2(O)CCC2)c(-c2ccc(S(C)(=O)=O)cc2)cc1CO ... > 200
CCCOc1nc(OCC(C)(C)O)c(-c2ccc(S(C)(=O)=O)cc2)cc1CO ... 80

Alright, here's another compound for you.
// query Reported Ratio IC50, compound "CC(C)(O)COc1nc(OCCC(F)(F)F)c(CO)cc1-c1ccc(S(C)(=O)=O)cc1" : ____
// result > 200

###

Test: Drug concentration in C57BL/6J mouse colon at 10 mg/kg, po administered as cassette dose measured at 2 hrs by liquid chromatographic triple-quadrupole mass spectrometric method
Type: ADME, organism-based
Conditions: read-out: Ct
Measurement name: concentration at 2 h
Respond with the figure and its unit, in that order.

// query concentration at 2 h for "CCCCOc1nc(OCC(C)(C)O)c(-c2ccc(S(C)(=O)=O)cc2)cc1CO" ?
// result 6510 ng/g

###

Each record here notes measured T1/2.
Target: Prostaglandin G/H synthase 2 (Homo sapiens)
Sequence (whole entry): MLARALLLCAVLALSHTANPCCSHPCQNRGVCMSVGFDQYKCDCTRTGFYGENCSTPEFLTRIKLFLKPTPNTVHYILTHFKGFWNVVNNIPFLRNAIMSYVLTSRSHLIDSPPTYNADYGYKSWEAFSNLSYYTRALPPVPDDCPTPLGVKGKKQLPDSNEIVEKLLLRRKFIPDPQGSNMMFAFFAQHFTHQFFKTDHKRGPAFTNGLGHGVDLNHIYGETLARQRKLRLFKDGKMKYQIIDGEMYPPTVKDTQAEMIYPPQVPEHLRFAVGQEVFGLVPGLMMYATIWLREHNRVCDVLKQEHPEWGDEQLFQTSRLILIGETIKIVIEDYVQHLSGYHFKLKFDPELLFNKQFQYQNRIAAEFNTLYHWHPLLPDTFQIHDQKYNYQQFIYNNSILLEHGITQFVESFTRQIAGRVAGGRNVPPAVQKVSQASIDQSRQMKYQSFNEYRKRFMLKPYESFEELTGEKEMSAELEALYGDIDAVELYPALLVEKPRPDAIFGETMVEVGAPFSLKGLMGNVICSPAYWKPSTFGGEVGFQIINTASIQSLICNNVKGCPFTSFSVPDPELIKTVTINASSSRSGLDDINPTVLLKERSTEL
Reply numerically in h, unit not repeated.

// query Find the measured T1/2: item "CCCCOc1nc(OCC2(O)CCC2)c(-c2ccc(S(C)(=O)=O)cc2)cc1CO" , target or system Prostaglandin G/H synthase 2 (Homo sapiens).
// result 39

// query How about "CCCCOc1nc(OCC(C)(C)O)c(-c2ccc(S(N)(=O)=O)cn2)cc1CO" ?
// result 23

###

Target: Prostaglandin G/H synthase 1 (Homo sapiens, UniProt P23219)
Sequence (P23219 whole entry): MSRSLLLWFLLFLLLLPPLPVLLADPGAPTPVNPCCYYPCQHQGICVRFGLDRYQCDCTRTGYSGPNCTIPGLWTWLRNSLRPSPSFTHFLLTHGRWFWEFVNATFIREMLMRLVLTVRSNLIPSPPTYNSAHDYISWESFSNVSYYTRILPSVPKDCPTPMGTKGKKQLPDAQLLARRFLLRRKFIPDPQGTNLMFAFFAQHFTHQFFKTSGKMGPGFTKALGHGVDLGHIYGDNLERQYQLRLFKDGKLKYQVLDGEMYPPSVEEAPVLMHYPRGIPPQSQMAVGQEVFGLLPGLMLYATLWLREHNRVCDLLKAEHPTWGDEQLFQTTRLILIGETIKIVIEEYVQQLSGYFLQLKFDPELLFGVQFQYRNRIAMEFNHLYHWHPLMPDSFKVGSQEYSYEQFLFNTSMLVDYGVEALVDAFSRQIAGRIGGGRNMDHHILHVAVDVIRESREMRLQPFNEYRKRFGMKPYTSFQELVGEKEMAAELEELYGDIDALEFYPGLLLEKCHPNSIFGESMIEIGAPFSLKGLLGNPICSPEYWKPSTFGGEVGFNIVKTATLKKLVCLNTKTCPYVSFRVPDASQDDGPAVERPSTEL
Test: Inhibition of COX1 (unknown origin) expressed in HEK293 TRex cells assessed as reduction in PGE2 production using arachidonic acid as substrate preincubated for 60 mins followed by substrate addition for 1 hr in presence of 10% FBS by RapidFire High-Throughput Mass Spectrometry
Assay type: ADME, cell-based, HEK293-T-REx
Measurement name: IC50 (µM)
Write down the numeric answer in µM and omit the unit.

// known answers, use as guide
CCCCOc1nc(-c2ccc(F)cc2)c(-c2ccc(S(C)(=O)=O)cc2)cc1CO ... 0.511
CCCCOc1nc(OCC(C)(C)O)c(-c2ccc(S(C)(=O)=O)cc2)cc1C(C)O (stereo unspecified) ... 7.69
CCCCOc1nc(OCC2(O)CCC2)c(-c2ccc(S(C)(=O)=O)cc2)cc1CO ... 7.23
CCCCOc1nc(OCC2COC2)c(-c2ccc(S(C)(=O)=O)cc2)cc1CO ... 2.46

# input for lookup
// query Reported IC50 for "CC(C)(O)COc1nc(OCCC(F)(F)F)c(CO)cc1-c1ccc(S(C)(=O)=O)cc1" : what is it?
// result 0.13

###

Target: Prostaglandin G/H synthase 2 (Homo sapiens)
Assay: Inhibition of COX2 (unknown origin) expressed in HEK293 TRex cells assessed as reduction in PGE2 production using arachidonic acid as substrate preincubated for 60 mins followed by substrate addition for 1 hr in presence of 10% FBS by RapidFire High-Throughput Mass Spectrometry
Format: cell-based, HEK293-T-REx
Measurement name: pIC50
Scale: negative log10 of molar concentration, which is what pIC50 denotes.

The examples below pair each entry with its known result.
COCCOc1nc(OCC(C)(C)O)c(-c2ccc(S(C)(=O)=O)cc2)cc1CO ... 5.53
CCCOc1nc(OCC(C)(C)O)c(-c2ccc(S(C)(=O)=O)cc2)cc1CO ... 6.22
CC(C)(O)COc1nc(OCCCC(F)(F)F)c(CO)cc1-c1ccc(S(C)(=O)=O)cc1 ... 7.11
CCCCOc1nc(-c2ccc(F)cc2)c(-c2ccc(S(C)(=O)=O)cc2)cc1CO ... 7.31
CCCCOc1nc(OCC(C)(C)O)c(-c2ccc(S(C)(=O)=O)cc2)cc1C(C)(C)O ... 5.92

Now look at this one.
// query Using the record for "CC(C)(O)COc1nc(OCCC(F)(F)F)c(CO)cc1-c1ccc(S(C)(=O)=O)cc1" , report its pIC50.
// result 6.89
